Every entry's value here was drawn from ChEMBL document CHEMBL3885861.

Species on record: Rattus norvegicus
assay.name: Open TG-GATES - Regimen: Daily Repeat
Type: toxicity, organism-based, Sprague-Dawley
Parameters: regimen Daily Repeat, gender Male, age 6 weeks
assay.conditions: in vivo, po, 300 mg/kg, […], tissue Plasma, route gavage, dose level Middle, time 14 day
measured.metric: A/G
// keep it numeric: no unit symbol after the value

Query: I'd like to know its A/G. The compound in question is CC(S)C(=O)NCC(=O)O (centres undefined) [TIOPRONIN]
Response: 1.3

Query: For the compound shown here, CCCCNC(=O)NS(=O)(=O)c1ccc(C)cc1 [TOLBUTAMIDE] , give the reported A/G.
Response: 0.8

Query: What measured A/G goes with CC(=O)[C@@]1(O)CC[C@H]2[C@@H]3C=C(Cl)C4=CC(=O)CC[C@]4(C)[C@H]3CC[C@@]21C [CHLORMADINONE] ?
Response: 1.1

From here, focus on the item given below.
Query: Looking for the measured A/G of O=C(O)c1ccccc1Nc1ccccc1 [FENAMIC ACID] , can you help?
Response: 0.8

====

Organism: Rattus norvegicus
assay.name: Open TG-GATES - Regimen: Daily Repeat
Assay type: toxicity, organism-based, Sprague-Dawley
Design: regimen Daily Repeat, gender Male, age 6 weeks
assay.conditions: in vivo, po, 0 mg/kg, […], tissue Blood, route gavage, dose level Control, time 7 day
measured.metric: WBC (x10_2/uL)
Numeric answer only, unit x10_2/uL assumed.

Query: Suppose we examine the molecule CCCCC1C(=O)N(c2ccccc2)N(c2ccccc2)C1=O [PHENYLBUTAZONE] ; what WBC value has been reported?
Response: 155.4

Query: Quick one: WBC for COc1ccc([C@@H]2Sc3ccccc3N(CCN(C)C)C(=O)[C@@H]2OC(C)=O)cc1 [DILTIAZEM] ?
Response: 91.7

Query: Please look up its WBC: O=C(O)c1ccccc1Nc1ccccc1 [FENAMIC ACID]
Response: 84.5

Query: I am curious: what WBC value has been reported for CCCCNC(=O)NS(=O)(=O)c1ccc(C)cc1 [TOLBUTAMIDE] ?
Response: 127.9

Query: Recorded WBC for `Nc1ccc(Cc2ccc(N)cc2)cc1` , please?
Response: 99.1

Further cases:
Query: So what does the record say about WBC for NS(=O)(=O)c1cc(C(=O)O)c(NCc2ccco2)cc1Cl [FUROSEMIDE] ?
Response: 100.8

Query: Fill in the blank: the reported WBC of `CCN(CC)C(=S)SSC(=S)N(CC)CC` is ____.
Response: 134.5

Query: What value of WBC has been recorded for this entry: CCO [ALCOHOL]
Response: 114.9

====

Species on record: Rattus norvegicus
assay.name: Open TG-GATES - Regimen: Single
Type: toxicity, organism-based, Sprague-Dawley
Design: regimen Single, gender Male, age 6 weeks
assay.conditions: in vivo, po, 0 mg/kg, 3 h, tissue Plasma, route gavage, dose level Control
measured.metric: TP (g/dL)
Your answer should be a plain number; it is taken to be in g/dL.

Query: What does the data say about its TP? Entry: CCCCNC(=O)NS(=O)(=O)c1ccc(C)cc1 [TOLBUTAMIDE]
Response: 5.3

More entries:
Query: Which TP reading was recorded for the molecule `CN(C/C=C/C#CC(C)(C)C)Cc1cccc2ccccc12` ?
Response: 5.5

Query: Requested read-out: TP. Entry: `COc1cc2ncnc(Nc3ccc(F)c(Cl)c3)c2cc1OCCCN1CCOCC1`
Response: 5.5

====

Species on record: Rattus norvegicus
assay.name: Open TG-GATES - Regimen: Daily Repeat
Type: toxicity, organism-based, Sprague-Dawley
Parameters: regimen Daily Repeat, gender Male, age 6 weeks
assay.conditions: in vivo, po, 0 mg/kg, […], tissue Blood, route gavage, dose level Control, time 28 day
measured.metric: Lym (%)
Numbers only here, please. The scale is %.

Query: Bench note: what Lym did `O=C(O)c1ccccc1Nc1ccccc1` show?
Response: 79.2

Query: State the recorded Lym for this entry: `CC(=O)[C@@]1(O)CC[C@H]2[C@@H]3C=C(Cl)C4=CC(=O)CC[C@]4(C)[C@H]3CC[C@@]21C`
Response: 82.2

Query: Which Lym value is on record for CC(S)C(=O)NCC(=O)O (stereo unspecified) ?
Response: 81.8

***
Query: Name the recorded Lym for `CCO` .
Response: 82

Query: Please report the recorded Lym for `CN(C/C=C/C#CC(C)(C)C)Cc1cccc2ccccc12` .
Response: 80

Query: Look up Lym: NS(=O)(=O)c1cc(C(=O)O)c(NCc2ccco2)cc1Cl [FUROSEMIDE]
Response: 82.2

====

Organism: Rattus norvegicus
assay.name: Open TG-GATES - Regimen: Single
Format: toxicity, organism-based, Sprague-Dawley
Set-up: regimen Single, gender Male, age 6 weeks
assay.conditions: in vivo, po, 0 mg/kg, 3 h, tissue Plasma, route gavage, dose level Control
measured.metric: TBIL
Show the value, then the unit it is measured in.

Query: Quick check: TBIL of COc1ccc([C@@H]2Sc3ccccc3N(CCN(C)C)C(=O)[C@@H]2OC(C)=O)cc1 [DILTIAZEM] ?
Response: 0.04 mg/dL

Query: Name the recorded TBIL for COc1cc2ncnc(Nc3ccc(F)c(Cl)c3)c2cc1OCCCN1CCOCC1 [GEFITINIB] .
Response: 0.02 mg/dL

====

Below, each entry is listed alongside its reported A/G.
Species: Rattus norvegicus
assay.name: Open TG-GATES - Regimen: Single
Format: toxicity, organism-based, Sprague-Dawley
Parameters: regimen Single, gender Male, age 6 weeks
assay.conditions: in vivo, po, 0 mg/kg, 3 h, tissue Plasma, route gavage, dose level Control
Enter a number only.

Query: Bench note: what A/G did `CN(C/C=C/C#CC(C)(C)C)Cc1cccc2ccccc12` show?
Response: 1.7

Query: Sample CC(S)C(=O)NCC(=O)O (centres undefined) — what was its A/G?
Response: 1.2

Query: Requested field: A/G. Item: CCCCNC(=O)NS(=O)(=O)c1ccc(C)cc1 [TOLBUTAMIDE]
Response: 0.9

Query: Look up A/G for this molecule: `O=c1ccc2ccccc2o1`
Response: 2.1

Query: Value lookup for A/G; key = `CC(=O)[C@@]1(O)CC[C@H]2[C@@H]3C=C(Cl)C4=CC(=O)CC[C@]4(C)[C@H]3CC[C@@]21C`
Response: 1.2

Query: Any idea what A/G was measured for `CCO` ?
Response: 2.7

New cases:
Query: May I ask what A/G has been recorded for `Nc1ccc(Cc2ccc(N)cc2)cc1` ?
Response: 0.8

Query: Recorded A/G for `O=C(O)c1ccccc1Nc1ccccc1` , please?
Response: 0.9

Query: Name the recorded A/G for CN(CCOc1ccc(CC2SC(=O)NC2=O)cc1)c1ccccn1.O=C(O)/C=C\C(=O)O (centres undefined) [ROSIGLITAZONE MALEATE] .
Response: 2.3

====

Species: Rattus norvegicus
assay.name: Open TG-GATES - Regimen: Single
Format: toxicity, organism-based, Sprague-Dawley
Set-up: regimen Single, gender Male, age 6 weeks
assay.conditions: in vivo, po, 0 mg/kg, 9 h, tissue Plasma, route gavage, dose level Control
Parameter TG: see the listing below.
Unit mg/dL implied. Number only.

Consider the following illustrative entries.
Query: Fill in the blank: the reported TG of CC(S)C(=O)NCC(=O)O (stereo not given) [TIOPRONIN] is ____.
Response: 64.2

Query: Value lookup for TG; key = CCO [ALCOHOL]
Response: 46.6

Query: What value of TG has been recorded for this entry: O=c1ccc2ccccc2o1 [COUMARIN]
Response: 36.6

Query: Suppose we examine the compound C=C[C@H]1C[N@@]2CC[C@H]1C[C@@H]2[C@@H](O)c1ccnc2ccc(OC)cc12 [QUINIDINE] ; what TG value has been reported?
Response: 66

Query: Give its TG value. Item: COc1cc2ncnc(Nc3ccc(F)c(Cl)c3)c2cc1OCCCN1CCOCC1 [GEFITINIB]
Response: 67.3

Consider now this further compound.
Query: Quick one: TG of COc1ccc([C@@H]2Sc3ccccc3N(CCN(C)C)C(=O)[C@@H]2OC(C)=O)cc1 [DILTIAZEM] ?
Response: 28.4

====

// reported KIDNEY_R per item
Organism: Rattus norvegicus
assay.name: Open TG-GATES - Regimen: Daily Repeat
Assay type: toxicity, organism-based, Sprague-Dawley
Set-up: regimen Daily Repeat, gender Male, age 6 weeks
assay.conditions: in vivo, po, 0 mg/kg, […], tissue Kidney, route gavage, dose level Control, time 28 day

Query: I would be grateful if you could share the reported KIDNEY_R for CC(=O)[C@@]1(O)CC[C@H]2[C@@H]3C=C(Cl)C4=CC(=O)CC[C@]4(C)[C@H]3CC[C@@]21C [CHLORMADINONE] .
Response: 1.4 g

Now examine the next entry.
Query: Return reported KIDNEY_R; argument: CN(C/C=C/C#CC(C)(C)C)Cc1cccc2ccccc12 [TERBINAFINE]
Response: 1.4 g
